Assay: batch mode homogeneous catalytic reductive dechlorination of endosulfan in contaminated water, titanium (III) citrate as bulk electron donor
Details: after 72 hours of reaction, about 0.010 mM catalyst, 0.32 ppm endosulfan initially, room temperature
Experimental: 40 milliliter (0.04 liter) glass vials (usually filled with about 25 milliliters of reaction solution), fitted with Teflon®-clear silicon sealing cups, were used at room temperature (between about 20° C. and about 25° C.) and atmospheric pressure. […] The extracted organic phase was then transferred to a gas chromatograph vial and analyzed for the presence of the endosulfan (as α and β isomers) contaminant. […]
Metric name: Normalized Endosulfan Concentration (%) α isomer

INSERT INTO assay_data (molecule, unit_of_measure, measurement) VALUES
  ('O=S(=O)(O)c1ccc(-c2c3nc(c(-c4ccc(S(=O)(=O)O)cc4)c4ccc([nH]4)c(-c4ccc(S(=O)(=O)O)cc4)c4nc(c(-c5ccc(S(=O)(=O)O)cc5)c5ccc2[nH]5)C=C4)C=C3)cc1.[Ni] [[TBSP—Ni]]', '%', 1.3),
  ('C[n+]1ccc(-c2c3nc(c(-c4cc[n+](C)cc4)c4ccc([n-]4)c(-c4cc[n+](C)cc4)c4nc(c(-c5cc[n+](C)cc5)c5ccc2[n-]5)C=C4)C=C3)cc1.[Co+2] [[TMPyP—Co]]', '%', 1.2),
  ('Oc1ccc(-c2c3nc(c(-c4ccc(O)cc4)c4ccc([n-]4)c(-c4ccc(O)cc4)c4nc(c(-c5ccc(O)cc5)c5ccc2[n-]5)C=C4)C=C3)cc1.[Co+2] [[TP(OH)P—Co]]', '%', 8.3),
  ('C=Cc1c(C)c2cc3[nH]c(cc4nc(cc5nc(cc1[nH]2)C(C)=C5CCC(=O)[O-])C(CCC(=O)[O-])=C4C)c(C)c3C=C.[Co+2]', '%', 31.5),
  ('C[n+]1ccc(-c2c3nc(c(-c4cc[n+](C)cc4)c4ccc([n-]4)c(-c4cc[n+](C)cc4)c4nc(c(-c5cc[n+](C)cc5)c5ccc2[n-]5)C=C4)C=C3)cc1.[Fe+2] [[TMPyP—Fe]]', '%', 40.7),
  ('O=S(=O)(O)c1ccc(-c2c3nc(c(-c4ccc(S(=O)(=O)O)cc4)c4ccc([nH]4)c(-c4ccc(S(=O)(=O)O)cc4)c4nc(c(-c5ccc(S(=O)(=O)O)cc5)c5ccc2[nH]5)C=C4)C=C3)cc1.[Co] [[TBSP—Co]]', '%', 2.8),
  ('Oc1ccc(-c2c3nc(c(-c4ccc(O)cc4)c4ccc([n-]4)c(-c4ccc(O)cc4)c4nc(c(-c5ccc(O)cc5)c5ccc2[n-]5)C=C4)C=C3)cc1.[Ni+2] [[TP(OH)P—Ni]]', '%', 8.3),
  ('C[n+]1ccc(-c2c3nc(c(-c4cc[n+](C)cc4)c4ccc([n-]4)c(-c4cc[n+](C)cc4)c4nc(c(-c5cc[n+](C)cc5)c5ccc2[n-]5)C=C4)C=C3)cc1.[Ni+2] [[TMPyP—Ni]]', '%', 0.0);
